test: NCI Yeast Anticancer Drug Screen. Data for the mec2-1 strain (AID 157); settings: S. cerevisiae mec2-1 strain, at 50.0 µM, active compounds read high
The panel holds about 79,000 compounds, 15% with a hit somewhere; the sample as a whole holds those more often.

Compound: O=C(O)C1CSC(c2ccccc2)N1 (configuration not stated)
Unit abbreviation: %
growth inhibition: -12.8
//
Compound: Cc1cc(C)cc(OCC(=O)O)c1
Unit abbreviation: %
growth inhibition: 10.2
//
Compound: Cc1cc(Nc2ccc3c(c2)OCO3)c2cc3c(cc2n1)OCO3
Unit abbreviation: %
growth inhibition: -9.15
//
Compound: CCCCNC(=O)c1ccc(OCC)cc1
Unit abbreviation: %
growth inhibition: 20.4
//
Compound: CCC(C)c1c(N)n(S(=O)(=O)c2ccc(C)cc2)oc1=O (configuration not stated)
Unit abbreviation: %
growth inhibition: 6.8
//
Compound: NC(CCl)=NCC12CC3CC(CC(C3)C1)C2
Unit abbreviation: %
growth inhibition: 25.9
//
Compound: Nc1ccc2ccccc2c1-c1c(N)ccc2ccccc12
Unit abbreviation: %
growth inhibition: 2.45

* * *

Assay: NCI Yeast Anticancer Drug Screen. Data for the cln2 rad14 strain (AID 165);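 further: 0% = growth equal to vehicle treated cultures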
Conditions: S. cerevisiae cln2 rad14 strain, at 50.0 µM, active compounds read high
Method: Growth inhibition of yeast strains with defined genetic alterations is measured as a screen for potential anti-cancer activity. Selected strains with alterations in DNA damage repair or cell cycle control were exposed to compounds and growth inhibition was measured relative to vehicle treated controls. The strain used in this assay is cln2 rad14
The panel holds about 79,000 compounds, 15% with a hit somewhere; the sample as a whole holds those more often.
Reported values of growth inhibition for individual entries

Compound: O=C(CCCl)OCCOc1ccccc1
growth inhibition, %: 21.9
//
Compound: O=Cc1c(O)c2ccccc2[nH]c1=O
growth inhibition, %: 9.5
//
Compound: CCN(C(=O)Nc1ccccc1Cl)c1ccccc1
growth inhibition, %: 2.95
//
Compound: O=Cc1ccc(O)c(O)c1
growth inhibition, %: 7.75
//
Compound: N#C/C(=C\NC(=S)N=Nc1c(O)[nH]c2ccccc12)c1nc2ccccc2s1
growth inhibition, %: -10.1
//
Compound: C/C(O)=C(/C=N/C(=S)Nc1ccccc1)C(=O)Nc1ccccc1C
growth inhibition, %: -4.5
//
Compound: Cc1ccc(C)c2c1CCC2=O
growth inhibition, %: -19.2
//
Compound: C=C(C)[C@@H]1CC[C@]2(CO)CC[C@]3(C)[C@H](CC[C@@H]4[C@@]5(C)CC[C@H](O)C(C)(C)[C@@H]5CC[C@]43C)[C@@H]12
growth inhibition, %: 11.8
//
Compound: CCCCc1ccc2nc(NC(=O)OC)[nH]c2c1
growth inhibition, %: 28.8
//
Compound: S=CN1CCCCC1
growth inhibition, %: -2.4
//
Compound: OC(CCN1CCCCC1)(c1ccccc1)c1ccccc1
growth inhibition, %: 16.4
//
Compound: Cc1ccc2nc(-c3ccc(N=Cc4ccccc4O)cc3)sc2c1
growth inhibition, %: -6
//
Compound: C=CCC(OC(C)=O)c1ccc(C(C)C)cc1 (stereo not drawn)
growth inhibition, %: -55.1

* * *

assay: NCI Yeast Anticancer Drug Screen. Data for the rad50 strain (AID 155);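 further: 0% = growth of vehicle-only cultures of the same strain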; details: S. cerevisiae rad50 strain growth inhibition; at 50.0 µM; active compounds read high
Compounds without any hit were thinned out: in the full panel of roughly 79,000, 15% have a hit.

Molecule: CCCCOC(=O)c1ccccc1O
growth inhibition / %: 9.35

Molecule: NC(=S)N/N=C/c1ccc(OC(=O)COc2ccccc2)cn1
growth inhibition / %: -2.8

Molecule: O=C(O)c1cccc(-n2ncc(Cl)c(Cl)c2=O)c1
growth inhibition / %: 8.4

Molecule: CCN(CC)CCCC(C)NC(=S)N/N=C(\C)c1ccccn1 (configuration not stated)
growth inhibition / %: 60.6

Molecule: O=C(O)CSCC(=O)Nc1cc(C(F)(F)F)ccc1Cl
growth inhibition / %: -28.1

Molecule: Cc1ccc(C)c2c1CCC2=O
growth inhibition / %: 3.9

Molecule: S=c1nc(-c2ccccn2)c(-c2ccccn2)n[nH]1
growth inhibition / %: -11

Molecule: CC(=O)NC(O)C(Cl)Cl (configuration not stated)
growth inhibition / %: -14.7

Molecule: Cc1ccc(C)c(CCO)c1
growth inhibition / %: -22.1

Molecule: O=C(O)CCCCCNC(=O)OCc1ccccc1
growth inhibition / %: 17.7

Molecule: Oc1ccc2ccccc2c1CN1CCOCC1
growth inhibition / %: 26.9

Molecule: CC(=O)C1C(=O)C(=O)N(c2ccc(Cl)c(Cl)c2)C1=O (configuration not stated)
growth inhibition / %: -22.1

Molecule: Cc1onc(-c2ccccc2Cl)c1C(=O)Cl
growth inhibition / %: -41.3

Molecule: CC(=O)C1C(=O)C(=O)N(c2cccc([N+](=O)[O-])c2)C1=O (configuration not stated)
growth inhibition / %: -40

Molecule: CCOC(=O)c1cc(C)[nH]c(=O)c1C#N
growth inhibition / %: -12.2

Molecule: C=C(OC(C)=O)c1ccccc1
growth inhibition / %: 6.45

Molecule: O=[N+]([O-])c1ccc2[nH]c(=S)n(/C=C(/c3ccc(Cl)cc3Cl)S(=O)(=O)Cc3ccc(Cl)cc3Cl)c2c1
growth inhibition / %: -5.05

Molecule: C=CC(C)C(C)(C)O (configuration not stated)
growth inhibition / %: -3.2

Molecule: O=C(Nc1ccccc1)c1ccco1
growth inhibition / %: 12.3

Molecule: O=C(Nc1cccc(Cl)c1)c1ccc(Cl)cc1Cl
growth inhibition / %: 1.95

Molecule: COc1cc(OC)c(NC(=O)C(Sc2nc(C)cc(C)c2C#N)c2ccccc2)cc1Cl (configuration not stated)
growth inhibition / %: -6.3

Molecule: c1ccc(Nc2ccccn2)nc1
growth inhibition / %: -10.2

Molecule: CCOC(OCC)C(=O)c1ccccc1
growth inhibition / %: -0.5

Molecule: ON1CCCC1
growth inhibition / %: -1.35

Molecule: CC(=O)NNC(=S)/N=C\C(C(=O)c1ccccc1)=C(/O)c1ccccc1
growth inhibition / %: -41.4

Molecule: Nc1nc(Cl)cc(Cl)n1
growth inhibition / %: 6.65

Molecule: CN(C)c1ccc2nc3ccc(=[N+](C)C)cc-3oc2c1
growth inhibition / %: -27.8

Molecule: CCC(=O)Oc1ccc2ccccc2c1
growth inhibition / %: 49.4

Molecule: OCC1CCC(O)C(CO)N1 (configuration not stated)
growth inhibition / %: -6.65

Molecule: CCC1CCC(C)NC1 (configuration not stated)
growth inhibition / %: 26.4

Molecule: C/C(O)=C(/C=N\C(=S)Nc1ccc(S(=O)(=O)Nc2nccs2)cc1)C(=O)Nc1ccccc1C
growth inhibition / %: -14.3

Molecule: CC(C)c1ccc(C(=O)OCCCl)cc1
growth inhibition / %: 29.7

Molecule: c1ccc2c(NCCCN3CCN(CCCNc4c5ccccc5nc5ccccc45)CC3)c3ccccc3nc2c1
growth inhibition / %: 23.9

Molecule: O=C1C=C[C@H](O)[C@@]2(CO)O[C@@H]12
growth inhibition / %: 5.85

Molecule: CC(=O)NNC(=S)N/C=C/c1c(C)ccc([N+](=O)[O-])c1[N+](=O)[O-]
growth inhibition / %: -24.5

Molecule: C/C(O)=C(/C=N/C(=S)Nc1ccccc1)C(=O)Nc1ccccc1C
growth inhibition / %: 25.9

Molecule: C=CC(C)(C)n1cc(C2=C(O)C(=O)C(c3cn(C(C)(C)C=C)c4ccccc34)=C(O)C2=O)c2ccccc21
growth inhibition / %: -1.6

Molecule: CSc1nsc(N)n1
growth inhibition / %: -13.3

Molecule: Clc1ccc(C(SCc2ccccc2)SCc2ccccc2)cc1
growth inhibition / %: -41.4

Molecule: CCN(CC)CCN1CNC(=S)NC1
growth inhibition / %: 0.1

Molecule: CC1(C)CCC(C)(C)NC(=S)N1
growth inhibition / %: 13.3

Molecule: O=c1[nH]c(=O)c2cc(Cl)cc(Cl)c2[nH]1
growth inhibition / %: -2.05

Molecule: C/C(=N\O)c1ccccn1
growth inhibition / %: -7.6

Molecule: S=C(NCc1ccccc1)N1CCC(CCCC2CCN(C(=S)NCc3ccccc3)CC2)CC1
growth inhibition / %: -9.45

Molecule: CC(C)OCC(CCl)OC(=O)Nc1ccccc1 (configuration not stated)
growth inhibition / %: 49.1

Molecule: OCCc1ccc(Cl)cc1
growth inhibition / %: 10.8

Molecule: C=C(C)[C@@H]1CC[C@]2(CO)CC[C@]3(C)[C@H](CC[C@@H]4[C@@]5(C)CC[C@H](O)C(C)(C)[C@@H]5CC[C@]43C)[C@@H]12
growth inhibition / %: 15.6

Molecule: COc1ccc2c(c1)Nc1ccccc1S2
growth inhibition / %: -23.9

Molecule: O=S(=O)(O)C(C(I)I)S(=O)(=O)O
growth inhibition / %: -0.15

Molecule: C#CCSc1nnnn1-c1ccccc1
growth inhibition / %: -0.6

Molecule: COc1cc(CC#N)c([N+](=O)[O-])cc1OC
growth inhibition / %: -3.15

Molecule: C/C(=N\N=C(/C)c1cccc([N+](=O)[O-])c1)c1cccc([N+](=O)[O-])c1
growth inhibition / %: -5.75
